The following compounds are shown together with reported log10 MIC values.
# System: Staphylococcus epidermidis
# testName: Antimicrobial activity against hospital methicillin-resistant Staphylococcus epidermidis 63/04 after 18 hrs by twofold serial microdilution method
# Type: functional
# measurementSetup: 63/04, 18 h
metric: log10 MIC (log10 of the value in µg/mL)

> print(dat)
                            structurestring  observed
1        FC(F)(F)c1cccc(NC(S)=NCc2ccccc2)c1      1.20
2     FC(F)(F)c1cccc(NC(=S)Nc2ccc(Cl)cc2)c1      1.20
3  O=C(O)c1cn(C2CC2)c2cc(N3CCNCC3)c(F)cc2c1=O      0.60
4     FC(F)(F)c1cccc(NC(=S)Nc2cccc(Br)c2)c1      0.00
5  FC(F)(F)c1cccc(NC(S)=Nc2ccc(Cl)c(Cl)c2)c1      0.30
6    Fc1ccc(NC(=S)Nc2cccc(C(F)(F)F)c2)cc1Cl     -0.30
7      Fc1cccc(NC(=S)Nc2cccc(C(F)(F)F)c2)c1      1.20
8       FC(F)(F)c1cccc(NC(=S)NCCc2ccccc2)c1      0.90

---

# Tested on: Staphylococcus aureus
# testName: Antimicrobial activity against hospital methicillin-resistant Staphylococcus aureus 522/11 after 18 hrs by twofold serial microdilution method
# Type: functional
# measurementSetup: 522/11, 18 h
The following compounds are shown together with reported log10 MIC values.
metric: log10 MIC (log10 of the value in µg/mL)

> print(dat)
                            structurestring  observed
1  O=C(O)c1cn(C2CC2)c2cc(N3CCNCC3)c(F)cc2c1=O      2.11
2        FC(F)(F)c1cccc(NC(S)=NCc2ccccc2)c1      1.20
3    Fc1ccc(NC(=S)Nc2cccc(C(F)(F)F)c2)cc1Cl     -0.30
4  FC(F)(F)c1cccc(NC(S)=Nc2ccc(Cl)c(Cl)c2)c1      0.00
5     FC(F)(F)c1cccc(NC(=S)Nc2cccc(Br)c2)c1     -0.30
6       FC(F)(F)c1cccc(NC(=S)NCCc2ccccc2)c1      1.20
7     FC(F)(F)c1cccc(NC(=S)Nc2ccc(Cl)cc2)c1      1.20
8      Fc1cccc(NC(=S)Nc2cccc(C(F)(F)F)c2)c1      0.90

---

# Tested on: Staphylococcus aureus
# testName: Antimicrobial activity against hospital methicillin-resistant Staphylococcus aureus 573/11 after 18 hrs by twofold serial microdilution method
# Format: functional
# measurementSetup: 573/11, 18 h
metric: log10 of MIC (log10 of the value in µg/mL)

> print(dat)
                            structurestring  observed
1        FC(F)(F)c1cccc(NC(S)=NCc2ccccc2)c1      1.20
2     FC(F)(F)c1cccc(NC(=S)Nc2cccc(Br)c2)c1     -0.60
3      Fc1cccc(NC(=S)Nc2cccc(C(F)(F)F)c2)c1      0.90
4     FC(F)(F)c1cccc(NC(=S)Nc2ccc(Cl)cc2)c1      0.90
5  FC(F)(F)c1cccc(NC(S)=Nc2ccc(Cl)c(Cl)c2)c1      0.00
6    Fc1ccc(NC(=S)Nc2cccc(C(F)(F)F)c2)cc1Cl     -0.30
7       FC(F)(F)c1cccc(NC(=S)NCCc2ccccc2)c1      1.20
8  O=C(O)c1cn(C2CC2)c2cc(N3CCNCC3)c(F)cc2c1=O      1.81
